GI50 overview
- Test system: HCC 2998
- test_description: NCI tumour cell line growth inhibition, 48 h
Calls of active or inactive are those of the source. Rule as the data show it: active = GI50 up to about 1.1 µM and inactive = higher.

{"compound": "O=C(Cc1ccccc1)NNc1nc(NNC(=O)c2ccncc2)nc(Nc2ccccc2)n1", "GI50": "> 10 µM (inactive)"}

[ask] Identify GI50 associated with the compound CC1=C(C(=O)NNC(=O)c2ccccc2)CC(C(=O)NNC(=O)c2ccccc2)=C(C)N1
[reply] > 100 µM (inactive)

[ask] Identify measured GI50 corresponding to O=C1C(c2cnc3ccccc3n2)=C(O)c2ccccc21
[reply] 71.8 µM (inactive)

[ask] Fill in reported GI50 for this entry: COc1cccc2c1C(=O)c1c(O)c3c(c(O)c1C2=O)C[C@@](O)(C(=O)CO)CC3OC1CC(O)C(O)C(C)O1 (stereo not given in full)
[reply] 0.562 µM (active)

[ask] Using known records, supply GI50 for C(=C\c1cc(-c2ccc3ccccc3n2)nc2ccc3ccccc3c12)/c1ccc2ccccc2n1
[reply] > 100 µM (inactive)

[ask] Read off the recorded GI50 for COc1ccc(-c2c(C#N)c(N)nc(S)c2C#N)cc1
[reply] 23.4 µM (inactive)

[ask] Specify measured GI50 for C[C@H](N)C(=O)Nc1ccc(-c2nc3ccccc3s2)cc1 .
[reply] 20.9 µM (inactive)
